System: P. falciparum K1 strain
Assay: [3H]hypoxanthine drug sensitivity assay, K1 strain
Assay type: cell-based
Conditions: Plasmodium falciparum, K1; read-out: IC50 K1
Task for the reader: assign each of the following molecules its reported IC50.
A complete answer gives the number and then names the unit.

Answered examples (2):
1) O=C1[C@H]2Cc3c([nH]c4ccccc34)[C@@H](c3ccccc3)N2C(=O)CN1C1CCN(Cc2ccccc2)CC1 [Compound 90]; 0.3 µg/mL
2) CC(C)(C)OC(=O)NCCN1CC[C@@H](N2CC(=O)N3[C@H](c4ccc5c(c4)OCO5)c4[nH]c5ccccc5c4C[C@@H]3C2=O)C1 [Compound 35]; 0.015 µg/mL

Turning now to a further molecule:
Inquiry: Which IC50 value belongs to CN(C)c1ccc(CN2CC[C@@H](N3CC(=O)N4[C@H](c5ccc6c(c5)OCO6)c5[nH]c6ccccc6c5C[C@@H]4C3=O)C2)cc1 [Compound 26] ?
Reply text: 0.14 µg/mL

---

Test system: P. falciparum K1 strain
Test: [3H]hypoxanthine drug sensitivity assay, K1 strain
Assay type: cell-based
Conditions: Plasmodium falciparum, K1; read-out: IC50 K1
readout.label: IC50
Please answer using a numeric value trailed by its unit.

Sample records with IC50:
1) O=C1[C@H]2Cc3c([nH]c4ccccc34)[C@@H](c3ccc4c(c3)OCO4)N2C(=O)CN1C1CCN(Cc2ccccc2)CC1; 0.01 µg/mL
2) O=C1[C@H]2Cc3c([nH]c4ccccc34)[C@H](c3ccc(Cl)nc3)N2C(=O)CN1[C@@H]1CCN(Cc2ccccc2)C1 [Compound 84t]; 1.03 µg/mL

Next item in the queue.
Inquiry: Quick one: IC50 of O=C1[C@H]2Cc3c([nH]c4ccccc34)[C@H](c3ccc4c(c3)OCO4)N2C(=O)CN1[C@@H]1CCN(Cc2ccccc2)C1 ?
Reply text: 1.03 µg/mL

---

System: P. falciparum 3D7 clone of NF54
Assay: [3H]hypoxanthine drug sensitivity assay, 3D7 clone
Assay type: cell-based
Conditions: Plasmodium falciparum; P. falciparum 3D7, sensitive to all anti-malarials; 48 h, [3H]hypoxanthine uptake; read-out: IC50 3D7(µg/ml)
Would you kindly list IC50 for each of these molecules?
Enter the number, and then the unit.

1. O=C1[C@H]2Cc3c([nH]c4ccccc34)[C@@H](c3ccc4c(c3)OCO4)N2C(=O)CN1[C@@H]1CCN(Cc2ccccc2)C1; 0.1 µg/mL
2. O=C1[C@H]2Cc3c([nH]c4ccccc34)[C@@H](c3ccc(Cl)nc3)N2C(=O)CN1[C@@H]1CCN(Cc2ccccc2)C1 [Compound 84c]; 0.07 µg/mL
3. O=C1[C@H]2Cc3c([nH]c4ccccc34)[C@@H](c3ccc4c(c3)OCO4)N2C(=O)CN1[C@@H]1CCN(Cc2ccccn2)C1; 0.08 µg/mL
4. O=C1[C@H]2Cc3c([nH]c4ccccc34)[C@@H](c3ccc4c(c3)OCO4)N2C(=O)CN1C1CCN(Cc2ccccc2)CC1; 0.27 µg/mL
5. CN(CCCN1CC(=O)N2[C@H](c3ccc4c(c3)OCO4)c3[nH]c4ccccc4c3C[C@@H]2C1=O)Cc1ccccc1; 0.98 µg/mL
6. O=C1[C@H]2Cc3c([nH]c4ccccc34)[C@H](c3ccc4nsnc4c3)N2C(=O)CN1[C@@H]1CCN(Cc2ccccc2)C1 [Compound 70t]; 0.7 µg/mL

For every record below, what is its IC50?
1. O=C1[C@H]2Cc3c([nH]c4ccccc34)[C@@H](c3ccc4nsnc4c3)N2C(=O)CN1[C@@H]1CCN(Cc2ccccc2)C1 [Compound 70c]
2. O=C1[C@H]2Cc3c([nH]c4ccccc34)[C@H](c3ccc4c(c3)OCO4)N2C(=O)CN1[C@@H]1CCN(Cc2ccccc2)C1
3. O=C1[C@H]2Cc3c([nH]c4ccccc34)[C@@H](c3ccccc3)N2C(=O)CN1C1CCN(Cc2ccccc2)CC1
4. CN(C)c1ccc(CN2CC[C@@H](N3CC(=O)N4[C@H](c5ccc6c(c5)OCO6)c5[nH]c6ccccc6c5C[C@@H]4C3=O)C2)cc1

Reply text:
["0.13 µg/mL", "0.29 µg/mL", "0.48 µg/mL", "0.006 µg/mL"]

Report IC50 for every entry below.
1. COc1ccc(CN2CC[C@@H](N3CC(=O)N4[C@H](c5ccc6c(c5)OCO6)c5[nH]c6ccccc6c5C[C@@H]4C3=O)C2)cc1
2. CN(CCN1CC(=O)N2[C@H](c3ccc4c(c3)OCO4)c3[nH]c4ccccc4c3C[C@@H]2C1=O)Cc1ccccc1
3. O=C1[C@H]2Cc3c([nH]c4ccccc34)[C@@H](c3ccc4c(c3)OCO4)N2C(=O)CN1[C@@H]1CCN(Cc2ccc3c(c2)OCO3)C1
4. Cn1ccnc1CN1CCC(N2CC(=O)N3[C@H](Cc4c([nH]c5ccccc45)[C@@H]3Cc3ccccc3)C2=O)CC1 [Compound 91t]

Reply text:
1. 0.23 µg/mL
2. 0.6 µg/mL
3. 0.17 µg/mL
4. 4.13 µg/mL

Respectfully, I request IC50 for each entry included below.
1. Cn1ccnc1CN1CC[C@@H](N2CC(=O)N3[C@@H](c4ccc5c(c4)OCO5)c4[nH]c5ccccc5c4C[C@@H]3C2=O)C1
2. O=C1[C@H]2Cc3c([nH]c4ccccc34)[C@H](c3ccc(Cl)nc3)N2C(=O)CN1[C@@H]1CCN(Cc2ccccc2)C1 [Compound 84t]
3. O=C1[C@H]2Cc3c([nH]c4ccccc34)[C@H](Cc3ccccc3)N2C(=O)CN1C1CCN(Cc2ccccc2)CC1 [Compound 89t]
4. Cn1ccnc1CN1CC[C@@H](N2CC(=O)N3[C@H](c4ccc5c(c4)OCO5)c4[nH]c5ccccc5c4C[C@@H]3C2=O)C1

Reply text:
1. 0.5 µg/mL
2. 0.09 µg/mL
3. 4.17 µg/mL
4. 0.09 µg/mL

Inquiry: For CC(C)(C)OC(=O)NCCN1CC[C@@H](N2CC(=O)N3[C@H](c4ccc5c(c4)OCO5)c4[nH]c5ccccc5c4C[C@@H]3C2=O)C1 , what is its reported IC50?
Reply text: 0.07 µg/mL
